Test system: HBV
EXPERIMENT_NOTES: HBsAg inhibition in HBV infected dHepaRG cells, gymnosis, single oligonucleotides and combinations (Examples 6-8, Tables 16-19)
Assay type: cell-based, hepatitis B virus
EXPERIMENTAL_PARAMETERS: PAPD7 targeting compounds, 20 μM, day 11 post-infection, average of 3
Below: a set of entries, each annotated with reported % HBsAg Inhibition Avg.
RECORDED_ENDPOINT: % HBsAg Inhibition Avg (%)

244_1 (CAGTtttatgctaatCA; gapmer 4-11-2, DNA gap, flank modification type not given here, as printed in the source, key not given here)    −26.9
191_1 (antisense TAgtgaaaatatttggAGTT; LNA gapmer implied, flank and gap sizes given, nucleotide key not given here, as printed in the source, key not given here)    −36.2
172_1 (antisense ATGTCATTATGTTTTAGTT; gapmer 4-13-2, DNA gap, modified flanks, flank chemistry and linkages not given here)    −45.0
224_1 (antisense TCACagacaagcaccAA; gapmer 4-11-2, DNA gap, flank modification and linkages not given here, as printed in the source, key not given here)    −22.1
239_1 (TGgtaaacactggGC; gapmer: modified nucleoside flanks, DNA gap, modification type not given here, as printed in the source, key not given here)    −31.6

All figures here come from patent US11534452B2.
